Measured GI50 of individual entries
Test system: OVCAR-3 ovarian
protocol: NCI tumour cell line growth inhibition, 48 h
quantityName: GI50

- N#CC1C(=N)Cc2ccccc2-c2ccccc21 (centres undefined): 3.6 µM
- O=C([O-])c1ccc2c(c1)-c1nc-2nc2[n-]c(nc3nc(nc4[n-]c(n1)c1ccc(C(=O)[O-])cc41)-c1cc(C(=O)[O-])ccc1-3)c1ccc(C(=O)[O-])cc21.[Fe+2]: > 50 µM
- O=C(Nc1cnn2ccc(N3CCC[C@@H]3c3cc(F)ccc3F)nc12)N1CC[C@H](O)C1: > 100 µM
- Cc1cc2c(cc1O)CC[C@@H]1[C@@H]2CC[C@]2(C)[C@@H](O)CC[C@@H]12: 9.14 µM

From: PubChem BioAssay (NCI)
